# Target Under Test: Sigma intracellular receptor 2 (Rattus norvegicus)
# Sequence (Q5U3Y7 whole entry): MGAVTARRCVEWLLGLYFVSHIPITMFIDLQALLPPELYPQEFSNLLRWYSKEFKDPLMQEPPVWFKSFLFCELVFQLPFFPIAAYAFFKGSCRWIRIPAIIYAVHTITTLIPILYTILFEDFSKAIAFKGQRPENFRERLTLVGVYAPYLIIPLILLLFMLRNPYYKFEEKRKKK
# Test: Displacement of [3H]-Di-o-tolylguanidine from sigma-2 receptor in rat liver membranes after 120 mins by scintillation counting method
pKi: −log10 of the molar value.
Experimental Endpoint: pKi

1. Cc1ccc(CN2CCCN(C(=O)c3ccccc3)CC2)c(C)c1
5.41
2. Cc1ccc(CN2CCCN(C(=O)c3ccncc3)CC2)c(C)c1
5.70
3. Cc1ccc(CN2CCCN(C(=O)c3cccs3)CC2)c(C)c1
5.74
4. O=C(c1cccs1)N1CCCN(Cc2ccccc2)CC1
6.53
5. Cc1ccc(CN2CCCN(C(=O)c3cccc4ccccc34)CC2)c(C)c1
6.99

[A] Cc1ccc(CN2CCCN(C(=O)c3ccc4ccccc4n3)CC2)c(C)c1
[B] O=C(c1ccco1)N1CCCN(Cc2ccccc2)CC1
(Q) Please let me know which one, A or B , has a lower measured pKi value. Write the label of whichever entry you select.
(A) B
(B: 6.25, A: 7.46)

* * *

# Test: Cytotoxicity against human SH-SY5Y cells assessed as cell viability at 100 uM after 48 hrs by MTT assay relative to control
# Format: cell-based
# Condition Summary: read-out: Activity
Experimental Endpoint: viability at 48 h, 100 µM (%)
Entry rule: numbers only, all in %.

(Q) Need viability at 48 h, 100 µM of O=C(c1cc2ccccc2o1)N1CCCN(Cc2ccccc2)CC1 , thanks.
(A) 98

* * *

# Target Under Test: Glutamate receptor ionotropic, NMDA 2B (Homo sapiens, UniProt Q05586+Q13224)
# Sequence (Q13224 whole entry, one chain of several): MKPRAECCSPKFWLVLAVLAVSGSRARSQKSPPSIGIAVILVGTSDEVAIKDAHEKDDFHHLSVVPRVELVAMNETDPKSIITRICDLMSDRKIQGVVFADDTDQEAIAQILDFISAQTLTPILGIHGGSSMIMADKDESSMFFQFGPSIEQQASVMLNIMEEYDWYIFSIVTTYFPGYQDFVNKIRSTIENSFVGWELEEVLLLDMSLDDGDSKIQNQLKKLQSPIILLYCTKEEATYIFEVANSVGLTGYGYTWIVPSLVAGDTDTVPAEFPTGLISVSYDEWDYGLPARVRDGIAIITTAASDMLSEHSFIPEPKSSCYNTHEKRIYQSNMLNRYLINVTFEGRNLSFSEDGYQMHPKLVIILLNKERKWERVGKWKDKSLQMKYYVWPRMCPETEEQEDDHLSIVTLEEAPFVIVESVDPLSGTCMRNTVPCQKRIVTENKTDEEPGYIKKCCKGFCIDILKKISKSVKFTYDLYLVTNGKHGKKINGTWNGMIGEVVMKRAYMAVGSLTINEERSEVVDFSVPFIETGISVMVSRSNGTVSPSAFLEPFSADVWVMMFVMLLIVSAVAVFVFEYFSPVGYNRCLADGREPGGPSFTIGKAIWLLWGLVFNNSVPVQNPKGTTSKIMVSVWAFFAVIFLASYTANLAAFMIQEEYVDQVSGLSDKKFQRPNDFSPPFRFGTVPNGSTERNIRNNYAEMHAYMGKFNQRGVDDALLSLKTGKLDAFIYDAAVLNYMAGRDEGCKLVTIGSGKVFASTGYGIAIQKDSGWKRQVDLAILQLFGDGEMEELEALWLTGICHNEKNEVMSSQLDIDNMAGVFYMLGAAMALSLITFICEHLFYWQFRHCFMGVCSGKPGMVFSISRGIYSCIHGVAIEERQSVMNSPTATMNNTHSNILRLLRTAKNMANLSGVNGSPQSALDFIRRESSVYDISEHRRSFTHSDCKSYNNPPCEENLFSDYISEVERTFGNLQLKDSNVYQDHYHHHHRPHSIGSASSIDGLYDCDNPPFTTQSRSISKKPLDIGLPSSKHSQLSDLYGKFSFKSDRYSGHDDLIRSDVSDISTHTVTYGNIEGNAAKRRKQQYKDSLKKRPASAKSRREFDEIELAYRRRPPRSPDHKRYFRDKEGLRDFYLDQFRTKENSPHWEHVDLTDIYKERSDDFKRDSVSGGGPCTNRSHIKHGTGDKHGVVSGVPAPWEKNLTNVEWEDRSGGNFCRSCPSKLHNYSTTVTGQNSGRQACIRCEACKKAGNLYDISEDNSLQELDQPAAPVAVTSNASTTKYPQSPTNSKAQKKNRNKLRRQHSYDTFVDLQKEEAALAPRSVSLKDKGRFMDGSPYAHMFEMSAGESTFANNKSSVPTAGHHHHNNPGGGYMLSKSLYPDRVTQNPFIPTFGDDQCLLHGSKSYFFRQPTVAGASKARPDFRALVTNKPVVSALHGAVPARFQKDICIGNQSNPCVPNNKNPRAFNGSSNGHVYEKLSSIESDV
# Test: Displacement of [3H]ifenprodil from GluN2B (unknown origin) expressed in mouse L(tk-) cell membranes co-expressing GluN1a incubated for 120 mins by scintillation counting method
Experimental Endpoint: Ki (nM)

Look over these answered cases.
1) O=C(c1cc2ccccc2o1)N1CCCN(Cc2ccccc2)CC1
1600
2) Cc1ccc(CN2CCCN(C(=O)c3ccccc3)CC2)c(C)c1
294
3) Cc1ccc(CN2CCCN(C(=O)c3cccc4ccccc34)CC2)c(C)c1
79
4) O=C(c1ccc2ccccc2n1)N1CCCN(Cc2ccccc2)CC1
1500

[I] Cc1ccc(CN2CCCN(C(=O)c3ccc4ccccc4n3)CC2)c(C)c1
[II] Cc1ccc(CN2CCCN(C(=O)c3cc4ccccc4o3)CC2)c(C)c1
(Q) Between I and II , which one has the lower reported Ki value? Use the label to indicate which entry you chose.
(A) II
(II: 59 nM, I: 108 nM)

* * *

Entries and their viability at 48 h, 100 µM values follow.
# Test: Cytotoxicity against human PANC1 cells assessed as cell viability at 100 uM after 48 hrs by MTT assay relative to control
# Type: cell-based
# Condition Summary: PANC-1 cells, read-out: Activity
Give just the number in %; leave the unit off.

1. Cc1ccc(CN2CCCN(C(=O)c3ccc4ccccc4n3)CC2)c(C)c1
51

Moving on to the next molecule.
(Q) Quick one: viability at 48 h, 100 µM for O=C(c1cc2ccccc2o1)N1CCCN(Cc2ccccc2)CC1 ?
(A) 127

* * *

# Test: Cytotoxicity against human SH-SY5Y cells assessed as cell viability at 50 uM after 48 hrs by MTT assay relative to control
# Format: cell-based
# Condition Summary: read-out: Activity
Experimental Endpoint: viability at 48 h, 50 µM (%)
Field format: number, assumed %, no unit text.

(Q) For O=C(c1cc2ccccc2o1)N1CCCN(Cc2ccccc2)CC1 , what is its reported viability at 48 h, 50 µM?
(A) 127

* * *

# Test: Cytotoxicity against human PANC1 cells assessed as cell viability at 50 uM after 48 hrs by MTT assay relative to control
# Type: cell-based
# Condition Summary: PANC-1 cells, read-out: Activity
Experimental Endpoint: viability at 48 h, 50 µM (%)
Give the number; % is assumed, so skip it.

(Q) If you can, please state the reported viability at 48 h, 50 µM value of O=C(c1cc2ccccc2o1)N1CCCN(Cc2ccccc2)CC1 .
(A) 196

* * *

# Target Under Test: Sigma intracellular receptor 2 (Rattus norvegicus)
# Test: Displacement of [3H]-Di-o-tolylguanidine from sigma-2 receptor in rat liver membranes after 120 mins by scintillation counting method
Experimental Endpoint: Ki (nM)

1) O=C(c1cccc2ccccc12)N1CCCN(Cc2ccccc2)CC1
187
2) O=C(c1ccc2ccccc2n1)N1CCCN(Cc2ccccc2)CC1
47
3) Cc1ccc(CN2CCCN(C(=O)c3cc4ccccc4o3)CC2)c(C)c1
28
4) Cc1ccc(CN2CCCN(C(=O)c3ccco3)CC2)c(C)c1
3900

[1] O=C(c1cc2ccccc2o1)N1CCCN(Cc2ccccc2)CC1
[2] O=C(c1ccncc1)N1CCCN(Cc2ccccc2)CC1
(Q) Quick one: lower Ki, 1 or 2 ? Answer by quoting the chosen item's label.
(A) 1
